# EXPERIMENT_SUMMARY: chemical genetic growth profiling, strain panel (AID 1159580);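 further: tested at 20 µM; growth read once vehicle control cultures reached saturation at 30 °C; 1 = growth at the plate median or of vehicle wells; lower values mean less growth of the strain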
# REPORTED_CONDITIONS: S. cerevisiae deletion strains, growth OD, locus YNL322C, strain KRE1
Among all 5,500 compounds or so, about 2,000 (36%) were called active. Inconclusive results (about 18%) are left out. No stated cut-off is given here; in the data, active means normalized growth mostly below about 0.91 (no sharp cut-off); inconclusive means no clear call, values can overlap the other calls; inactive means mostly above about 0.92. The list shows a part of the results.
Answer with one of the outcomes 1 (yes) (active), 0 (no) (inactive)

Field: example entries. Status: answers known.
COMPOUND	CLASS_ASSIGNMENT
CN1CCC23CCCC[C@H]2C1Cc1ccc(O)cc13 (stereo partly drawn)	0 (no)
CC1(NCC(O)COc2cccc3[nH]ccc23)CCC(C(C)(C)NC(=O)CBr)CC1 (stereo not drawn)	0 (no)
CN(C)CC/C=C1/c2ccccc2COc2ccccc21	0 (no)
Cc1cc2cc3c(C)cc(=O)oc3c(C)c2o1	0 (no)
N#CC1COc2ccccc2O1 (stereo not drawn)	0 (no)
CC(=O)/C(C)=N\O	0 (no)
CC(=O)O.CC(=O)O.[Cd]	1 (yes)

Now for a further compound.
// query Query: recorded result category for CN(C)CCC=C1c2ccccc2C=Cc2ccccc21 in this test
// result 0 (no)
